# measured.target: human ether-à-go-go-related gene (hERG) potassium channel (human)
# method.notes: primary screen, population patch clamp on CHO cells stably expressing hERG; higher = less effect of the substance
About 2,200 (0.71%) of roughly 310,000 compounds showed an effect of 50% or more. The effect is printed as a negative number. The list comes from a sample in which strong results are over-represented; it also holds close analogues and randomly drawn compounds.
Please note: met applies when hERG current change (%, negative = inhibition) at 1uM is 9% or greater, and not met applies otherwise.

- smiles.entry: "Cc1cc(Cl)cc(Cl)c1CNc1c([N+](=O)[O-])c(=O)oc2ccccc12"
  assigned.category: "not met"
- smiles.entry: "Cc1[nH]n(-c2ccccc2)c(=O)c1C=Nc1ccc(S(=O)(=O)Nc2nccs2)cc1"
  assigned.category: "met"
- smiles.entry: "C[N+](C)(C)CCCCCCCCCC[N+](C)(C)C.[Br-]"
  assigned.category: "not met"
- smiles.entry: "Cc1cc(C)cc(NC(=O)CCNS(=O)(=O)c2ccc3c(c2)oc(=O)n3C)c1"
  assigned.category: "met"

---

# measured.target: human ether-à-go-go-related gene (hERG) potassium channel (human, UniProt Q12809)
# Sequence (Q12809 whole entry, looked up): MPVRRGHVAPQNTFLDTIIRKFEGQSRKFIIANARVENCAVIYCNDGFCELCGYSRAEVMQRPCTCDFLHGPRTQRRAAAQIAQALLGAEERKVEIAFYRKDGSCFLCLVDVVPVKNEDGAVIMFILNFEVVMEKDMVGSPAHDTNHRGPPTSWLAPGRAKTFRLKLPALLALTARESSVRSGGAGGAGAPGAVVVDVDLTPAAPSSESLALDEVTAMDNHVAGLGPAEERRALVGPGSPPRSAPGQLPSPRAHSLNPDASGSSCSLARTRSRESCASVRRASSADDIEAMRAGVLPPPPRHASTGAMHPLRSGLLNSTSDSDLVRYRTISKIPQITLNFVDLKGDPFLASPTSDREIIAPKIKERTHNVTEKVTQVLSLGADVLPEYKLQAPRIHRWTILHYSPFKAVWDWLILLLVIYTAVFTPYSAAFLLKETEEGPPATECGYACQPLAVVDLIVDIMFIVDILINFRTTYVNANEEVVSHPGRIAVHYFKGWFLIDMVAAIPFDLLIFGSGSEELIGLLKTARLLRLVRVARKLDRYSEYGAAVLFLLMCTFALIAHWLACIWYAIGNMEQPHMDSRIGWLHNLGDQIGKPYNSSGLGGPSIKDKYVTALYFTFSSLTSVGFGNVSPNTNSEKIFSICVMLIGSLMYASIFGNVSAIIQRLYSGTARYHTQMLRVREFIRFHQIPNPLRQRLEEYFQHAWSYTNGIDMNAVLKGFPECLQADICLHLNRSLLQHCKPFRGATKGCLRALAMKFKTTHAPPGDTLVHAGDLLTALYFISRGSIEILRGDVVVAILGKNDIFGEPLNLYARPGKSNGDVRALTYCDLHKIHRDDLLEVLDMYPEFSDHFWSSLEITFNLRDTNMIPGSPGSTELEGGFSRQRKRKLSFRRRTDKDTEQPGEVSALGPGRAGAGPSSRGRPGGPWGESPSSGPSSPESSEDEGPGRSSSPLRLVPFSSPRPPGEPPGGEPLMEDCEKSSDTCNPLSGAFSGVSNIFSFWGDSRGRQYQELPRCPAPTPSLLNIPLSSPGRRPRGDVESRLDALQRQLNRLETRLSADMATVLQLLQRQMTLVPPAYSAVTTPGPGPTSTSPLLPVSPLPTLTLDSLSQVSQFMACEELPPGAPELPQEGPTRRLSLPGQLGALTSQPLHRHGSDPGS
# method.notes: primary screen, population patch clamp on CHO cells stably expressing hERG; higher = less effect of the substance
The whole screen tested about 310,000 compounds, of which about 2,200 (0.71%) showed an effect of 50% or more. Effects have a minus sign here. The full list was thinned out, with strong results kept by preference.
quantity.measured: hERG current change (%, negative = inhibition) at 1uM (%)

- smiles.entry: "O=C(/C=C/c1ccoc1)c1ccccc1O"
  quantitative.readout: 3.71
- smiles.entry: "Brc1ccc2c(c1)OCCOCCOc1cc(Br)ccc1OCCOCCOCCO2"
  quantitative.readout: -6.77
- smiles.entry: "CCN1CCN(c2c(Cl)cccc2NC(=O)c2ccc([N+](=O)[O-])cc2)CC1"
  quantitative.readout: -15.9
- smiles.entry: "Brc1ccc2c(c1)OCCOCCOCCOCCOCCO2"
  quantitative.readout: -78.6
- smiles.entry: "Brc1cc2c(cc1Br)OCCOCCOCCOCCO2"
  quantitative.readout: -38.2
- smiles.entry: "Cc1ccc(CN2CCN(CC(=O)N=Nc3c(O)[nH]c4ccccc34)CC2)cc1"
  quantitative.readout: -75.3
- smiles.entry: "Cc1ccc(OC(=O)c2ccc3nc(C)sc3c2)cc1"
  quantitative.readout: 10
- smiles.entry: "Brc1cc2c(cc1Br)OCCOCCOCCO2"
  quantitative.readout: 5.78
- smiles.entry: "Nc1[nH]c(N=NC(=O)c2ccccc2O)c2ccccc12"
  quantitative.readout: -57.5
- smiles.entry: "C=Cc1ccc2c(c1)OCCOCCOCCOCCOCCO2"
  quantitative.readout: -70.2
- smiles.entry: "Nc1ccccc1C(=O)N=Nc1[nH]c(N)c2ccccc12"
  quantitative.readout: 21

---

Each entry below lists one item and its recorded hERG current change (%, negative = inhibition) at 1uM value.
# measured.target: human ether-à-go-go-related gene (hERG) potassium channel (human, UniProt Q12809)
# method.notes: primary screen, population patch clamp on CHO cells stably expressing hERG; higher = less effect of the substance
Among all 310,000 compounds or so, about 2,200 (0.71%) showed an effect of 50% or more. Effects have a minus sign here. Many of the other results were omitted from the sample, so strong results are more common in it than they were.
quantity.measured: hERG current change (%, negative = inhibition) at 1uM (%)

- molecule: "CC(NC(=O)c1ccc2c(c1)OCO2)C1CCCO1 (centres unmarked)"
  quantitative.readout: -0.0414
- molecule: "CN(CCNC(=O)c1ccc(CS(=O)(=O)c2ccc(Br)cc2)o1)CCc1ccccc1"
  quantitative.readout: -42
- molecule: "CC(C)N(CCNC(=O)c1ccc(CS(=O)(=O)c2c(Cl)cccc2Cl)o1)Cc1ccccc1"
  quantitative.readout: -3.94
- molecule: "O=C(C[n+]1cccc(NC(=O)c2ccccc2)c1)c1cccc([N+](=O)[O-])c1.[Br-]"
  quantitative.readout: -39.6
- molecule: "O=C(C[n+]1cccc2ccccc21)c1ccc([N+](=O)[O-])cc1.[Br-]"
  quantitative.readout: -53.8
